Target: KRAS G12C (Homo sapiens (Human), UniProt P01116, C118A/G12C)
Sequence (P01116 other isoform, or with tags, fused parts or gaps G12C/C118A): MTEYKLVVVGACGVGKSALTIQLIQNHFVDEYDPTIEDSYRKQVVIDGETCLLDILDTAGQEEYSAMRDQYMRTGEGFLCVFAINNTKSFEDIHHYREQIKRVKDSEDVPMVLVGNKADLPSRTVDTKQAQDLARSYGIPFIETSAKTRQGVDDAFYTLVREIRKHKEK
Assay: 2 h coupled exchange assay
Format: biochemical
Conditions: Avg 2 h Coupled exchange IC50, 2 h compound pre-incubation, SOS-mediated nucleotide exchange
Endpoint Label: pIC50
Formally, pIC50 is defined as -log10 of the concentration c, with c in mol/L.

Inquiry: Quick one: pIC50 of C=CC(=O)N1CC2(CCN(c3nc4c(c(-c5cc(O)c(F)c6ccccc56)c3C#N)CC[C@H]3C[C@@H]43)C2)C1 (single isomer, unassigned) [Example 13-75] ?
Reply text: 4.77

Inquiry: Quick one: pIC50 of Cc1ccc2[nH]ncc2c1-c1c(C#N)c(N2CCC3(CN(C(=O)/C=C/C(F)F)C3)C2)nc2c1CCC(C)(C)C2 [Example 13-8] ?
Reply text: 7.36

Inquiry: Quick one: pIC50 of C=CC(=O)N1CC2(CCN(c3nc4c(c(-c5cccc(F)c5O)c3C#N)C[C@H]3C[C@@H]4C3(C)C)C2)C1 [Example 2-70] ?
Reply text: 5.87

Inquiry: Quick one: pIC50 of C=CC(=O)N1CC2(CCN(c3nc4c(c(-c5cc(O)ccc5C)c3C#N)[C@H]3CC[C@@H]4C3)C2)C1 (single isomer, unassigned) [Example 14-12] ?
Reply text: 6.37

Inquiry: Quick one: pIC50 of C=CC(=O)N1CC2(CCN(c3nc4c(c(-c5cc(O)cc(Cl)c5C)c3C)COC(C)(C)C4)C2)C1 (single isomer, unassigned) [Example 12-44] ?
Reply text: 4.96

Inquiry: Quick one: pIC50 of C=CC(=O)N1CC2(CCN(c3nc4c(c(-c5cc(O)cc6ccccc56)c3C#N)[C@H]3CC[C@@H]4C3)C2)C1 (single isomer, unassigned) [Example 2-39] ?
Reply text: 8.05

* * *

Target: KRAS G12C (Homo sapiens (Human), UniProt P01116, C118A/G12C)
Experiment: 2 h coupled exchange assay
Assay type: biochemical
Settings: Avg 2 h Coupled exchange IC50, 2 h compound pre-incubation
Rule for this label: class 1 means IC50 is less than 100 nM; class 0 means IC50 is at least 100 nM.

A selection of reference data follows.
- Compound: "C=CC(=O)N1CC2(CCN(c3nc4c(c(-c5ccccc5F)c3C#N)CCN(c3ncc(C)s3)C4)C2)C1"
  Cat: "class 0"
- Compound: "C=CC(=O)N1CC2(CCN(c3nc4c(c(-c5cccc(O)c5)c3C#N)CCC(c3scnc3C)=C4)C2)C1"
  Cat: "class 0"
- Compound: "C=CC(=O)N1CC2(CCN(c3nc4c(c(-c5cccc6cc(O)ccc56)c3C)CCN(C(C)COC)C4)C2)C1 (stereo not drawn)"
  Cat: "class 1"
- Compound: "C=CC(=O)N1CC2(CCN(c3nc4cc(-n5ccnc5C)ccc4c(-c4ccccc4Cl)c3C)C2)C1"
  Cat: "class 0"

Inquiry: For this compound, is IC50 lower than 100 nM? C=CC(=O)N1CC2(CCN(c3nc4c(c(-c5cc(O)ccc5Cl)c3C#N)CCN(C3CCCN(C)C3)C4)C2)C1 (stereo not drawn)
Reply text: class 0

Inquiry: For this compound, is IC50 lower than 100 nM? C=CC(=O)N1CC2(CCN(c3nc4cc(-c5scnc5C)cnc4c(-c4ccccc4F)c3Cl)C2)C1
Reply text: class 0

Inquiry: For this compound, is IC50 lower than 100 nM? C=CC(=O)N1CC2(CCN(c3nc4c(c(-c5cccc6cc(O)ccc56)c3C)CCN(CC(O)C(F)(F)F)C4)C2)C1 (stereo not drawn)
Reply text: class 0

Inquiry: For this compound, is IC50 lower than 100 nM? C=CC(=O)N1CC2(CCN(c3nc4c(c(-c5ncccc5F)c3C#N)CCC(c3c(C)cnn3C)=C4)C2)C1
Reply text: class 0

Inquiry: For this compound, is IC50 lower than 100 nM? C=CC(=O)N1CC2(CCN(c3nc4c(c(-c5ccccc5F)c3C#N)CCN(c3scnc3C)[C@@H]4C)C2)C1
Reply text: class 1
